- target_of_assay: human factor XIa (Homo sapiens)
- Construct: purchased Kordia
- Sequence (P03951 388-625 limits assumed): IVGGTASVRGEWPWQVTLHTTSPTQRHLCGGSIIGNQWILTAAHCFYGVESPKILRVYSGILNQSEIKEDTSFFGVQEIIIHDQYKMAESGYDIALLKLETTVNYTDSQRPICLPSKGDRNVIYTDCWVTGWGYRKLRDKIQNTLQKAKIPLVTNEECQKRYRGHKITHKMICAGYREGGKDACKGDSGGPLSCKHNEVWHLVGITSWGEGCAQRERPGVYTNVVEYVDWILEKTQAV
- Sequence (P03951 19-387 partner limits assumed): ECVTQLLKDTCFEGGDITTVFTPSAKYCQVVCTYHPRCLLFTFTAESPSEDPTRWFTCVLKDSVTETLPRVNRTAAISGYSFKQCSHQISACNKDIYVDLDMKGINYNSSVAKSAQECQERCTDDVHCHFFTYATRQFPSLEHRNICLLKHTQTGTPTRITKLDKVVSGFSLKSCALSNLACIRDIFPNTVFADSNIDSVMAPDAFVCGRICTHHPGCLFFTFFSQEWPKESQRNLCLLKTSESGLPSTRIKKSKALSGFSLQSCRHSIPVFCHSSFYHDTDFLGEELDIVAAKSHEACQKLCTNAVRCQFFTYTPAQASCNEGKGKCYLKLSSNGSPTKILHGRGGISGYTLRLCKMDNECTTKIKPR
- protocol_description: Measurement of FXIa inhibition (fluorogenic peptide substrate, AMC cleavage)
- Type: biochemical
- condition_info: factor XIa from Kordia 0.45 nM; substrate Boc-Glu(OBzl)-Ala-Arg-AMC; 30 min at 22° C.

compound: COCCC(C(=O)Nc1ccc(C(N)=O)c(F)c1)n1cc(Cl)c(-c2cc(Cl)ccc2C#N)cc1=O (stereo not drawn) [Example 6]
target_of_assay: human factor XIa (Homo sapiens)
unit_of_measurement: nM
IC50: 47
--
compound: COCCC(C(=O)Nc1ccc(C(N)=O)c(OC)c1)n1cc(OC)c(-c2cc(Cl)ccc2C#N)cc1=O (racemic) [Example 48]
target_of_assay: human factor XIa (Homo sapiens)
unit_of_measurement: nM
IC50: 15
--
compound: COc1cn(C(Cc2ncco2)C(=O)Nc2ccc(C(N)=O)c(F)c2)c(=O)cc1-c1cc(Cl)ccc1C#N (racemic) [Example 36]
target_of_assay: human factor XIa (Homo sapiens)
unit_of_measurement: nM
IC50: 13

----------
- target_of_assay: human factor XIa (Homo sapiens)
- Construct: purchased Kordia
- protocol_description: Measurement of FXIa inhibition (fluorogenic peptide substrate, AMC cleavage)
- Assay type: biochemical
- condition_info: factor XIa from Kordia 0.45 nM; substrate Boc-Glu(OBzl)-Ala-Arg-AMC; 30 min at 22° C.
Binary label based on IC50 with cut-off 10 nM: below gives 1.0, not below gives 0.0.

compound: N#Cc1ccc(Cl)cc1-c1cc(=O)n(C(Cc2ccccn2)C(=O)Nc2ccc(C(N)=O)c(F)c2)cc1Cl (stereo not shown)
label: 0.0
//
compound: COc1cn(C(Cc2cnco2)C(=O)Nc2ccc(C(N)=O)c(F)c2)c(=O)cc1-c1cc(Cl)ccc1C#N (stereo not shown) [Example 5]
label: 0.0
//
compound: COCCC(C(=O)Nc1ccc(C(N)=O)c(F)c1)n1cc(OC)c(-c2cc(OC)ccc2C#N)cc1=O (racemic)
label: 0.0
//
compound: CNC(=O)c1ccc(NC(=O)C(Cc2ccn(C)n2)n2cc(OC)c(-c3cc(C)ccc3C#N)cc2=O)cc1F (racemic)
label: 0.0
//
compound: COc1cn(C(CC2=NOCC2)C(=O)Nc2ccc(C(N)=O)c(F)c2)c(=O)cc1-c1cc(Cl)ccc1C#N (racemic)
label: 0.0
//
compound: COc1cn(C(CCOC(C)(C)C)C(=O)Nc2ccc(C(N)=O)c(F)c2)c(=O)cc1-c1cc(Cl)ccc1C#N (racemic)
label: 1.0
//
compound: COc1cn(C(Cc2cc(C)on2)C(=O)Nc2ccc(C(N)=O)c(F)c2)c(=O)cc1-c1cc(Cl)ccc1C#N (racemic)
label: 0.0
//
compound: COCCC(C(=O)Nc1ccc(C(N)=O)c(F)c1)n1cc(OC)c(-c2cc(C)ccc2C#N)cc1=O (racemic) [Example 49]
label: 0.0
//
compound: COc1cn(C(Cc2ccccn2)C(=O)Nc2ccc(C(N)=O)c(F)c2)c(=O)cc1-c1cc(Cl)ccc1F (stereo not shown)
label: 0.0
//
compound: COc1cn(C(Cc2ccn(C)n2)C(=O)Nc2ccc(C(N)=O)c(F)c2)c(=O)cc1-c1cc(Cl)ccc1C#N (racemic)
label: 1.0
